Listing of recorded growth by entry.
- System: SK-MEL-28 melanoma
- assay_procedure: NCI-60 one-dose screen, 48 h (100 = growth as untreated, 0 = no growth, -100 = all killed)
- measurement_parameters: 10 µM unless noted
Compounds without any hit were thinned out: in the full panel of roughly 83,000, 20% have a hit.
readout_type: growth (%)

compound | readout_type | endpoint_result
O=C(NC(CSSCC(NC(=O)c1ccccc1)C(=O)O)C(=O)O)c1ccccc1 (stereo not given) | growth | 118
CCC1(C2CCCC2)NC(=O)NC1=O (stereo not given) | growth | 98.4
COc1cccc(-c2nn(-c3ccccc3)cc2-c2ccnc(NCCCNC(=O)Nc3ccc(Cl)c(Cl)c3)c2)c1 | growth | -29.2
CCOc1c(C#N)nnc2c(C#N)c(NC(=O)c3ccccc3)nn12 | growth | 104
NC(=N\N=C/c1ccccc1[N+](=O)[O-])/C(N)=N\N=C/c1ccccc1[N+](=O)[O-] | growth | 118
COc1ccc(C(=NN=C(N)N)c2ccc(OC)cc2)cc1 | growth | 59
CCCCn1c(=O)c2c(nc(NCCc3ccc(O)c(O)c3)n2CCC)n(CCCC)c1=O | growth | 86.9
O=C(O)c1ccc2c(c1Cl)C(=O)c1ccccc1C2=O | growth | 107
O=C(Nc1ccc(Nc2ccncc2)cc1)c1ccc(C(=O)Nc2ccc(Nc3ccncc3)cc2)cc1 | growth | 43.4
Cn1cc2c(c1)-c1nc(Nc3ccccc3)ncc1CC2 | growth | 99.9

###

- Test system: SK-MEL-28 melanoma
- assay_procedure: NCI-60 one-dose screen, 48 h
- measurement_parameters: 10 µM unless noted
This is part of a sample that, as a whole, favours compounds with a hit. Of some 83,000 tested, about 20% had one in any assay. Activity calls are given as the source filed them. The calls were made as follows: active = growth percent below 10; inactive = the rest.
Outcome codes: active, inactive

molecule | group_label
Fc1c[c-]c(-c2ccccn2)c(F)c1.[CH3-].[Pt+2].c1ccc(P(C[PH+](c2ccccc2)c2ccccc2)c2ccccc2)cc1 | active
Cc1cccc(NC(=O)CSc2nc3ccccc3[nH]2)c1 | inactive
COc1cccc(-c2nc3sccn3c2-c2ccnc(NCCNS(=O)(=O)c3cccc(Cl)c3)c2)c1 | inactive
CC1(C)CC(=O)C2=C(C1)N(c1ccc(OC(F)(F)F)cc1)C(N)=C(C#N)C2c1ccc(Cl)cc1 (stereo not given) | inactive
O=c1oc2ccccc2c(Cl)c1Cl | inactive
c1coc(-c2c3ccc(=[N+]4CCCCC4)cc-3oc3cc(N4CCCCC4)ccc23)c1 | active
O=C(CC(SCc1ccccc1)c1ccccc1)c1ccccc1 (stereo not given) | inactive
CC1(c2ccccc2)NC(=O)N(NC(=O)CSc2nc(-c3cccs3)nc3ccccc23)C1=O (stereo not given) | inactive
O=C(Nc1ccccc1)Nc1cccc(Oc2nnc(Cl)c3ccccc23)c1 | inactive
CCCCCCCCCCCCCCCCCC1=NCCN1CCOC1=C(Cl)C(=O)c2ccccc2C1=O | inactive
CCOP(=O)(OCC)C1CP(=O)(c2ccccc2)CC(C)=C1Cl (stereo not given) | inactive
COc1cc(/C=C/C(=O)c2c(C)nc3ccccc3c2/C=C/c2ccc(C)cc2)cc(OC)c1OC | inactive
COc1ccc(N=Nc2ccc(O)c(=O)cc2)cc1 | active
CCN1CCN(c2cc(C)nc(NCc3cc(Nc4ccnc5cc(Cl)ccc45)ccc3F)n2)CC1 | inactive
Cc1ccc(/C=C/c2c(C(=O)/C=C/c3ccc(Cl)cc3)c(C)nc3ccccc23)cc1 | active
COc1ccc2c(c1)O/C(=C/c1ccc(OCC(=O)c3ccccc3)cc1)C2=O | inactive
Cc1cc(NCc2cc(Nc3ccnc4cc(Cl)ccc34)ccc2F)nc(Cl)n1 | inactive
Cc1cc(NCc2cc(Nc3ccnc4cc(Cl)ccc34)ccc2F)nc(N2CCOCC2)n1 | active
COc1cccc(-c2nc3sccn3c2-c2ccnc(NCCNS(=O)(=O)c3cccc(F)c3)c2)c1 | inactive
Cc1ccc(C(=O)COc2cccc(/C=C3\Oc4ccccc4C3=O)c2)cc1 | inactive
